Property: pIC50; scope: individual molecules
# system under test: CDK2/Cyclin E1 (Homo sapiens, UniProt P24941)
# protocol summary: CDK2/Cyclin E1 Caliper LabChip EZ Reader mobility shift assay
# Type: biochemical
# Design: purchased Eurofins 14-475
# condition description: read-out: Caliper Assay (CDK2/CCNE1): IC50
pIC50: −log10 of the molar value.

Form: item C[C@@H](OCC1CCOCC1)[C@H](NC(=O)[C@@H]1CN(C(=O)c2cncs2)CC12CN(C(=O)[C@H]1CC1(C)C)C2)C(=O)N1CCC(n2ccnc2)CC1 [I-440] ; test system CDK2/Cyclin E1 (Homo sapiens, UniProt P24941); pIC50: 7.00 to 8.00

The recorded pIC50 with CDK2/Cyclin E1 (Homo sapiens, UniProt P24941) for COC(=O)[C@@H](NC(=O)[C@@H]1CN(C(=O)c2cnn(Cc3ccccc3)c2)CC12CN(C(=O)[C@H]1CC1(C)C)C2)[C@@H](C)OCC1CCCCC1 [I-475] was ≥ 8.00

// assay CDK2/Cyclin E1 (Homo sapiens, UniProt P24941), entry C[C@@H](OCC1CCCCC1)[C@H](NC(=O)[C@@H]1CN(C(=O)c2cnn(Cc3ccccc3)c2)CC12CN(C(=O)[C@H]1CC1(C)C)C2)C(=O)N1CCC(c2cnc[nH]2)CC1 [I-438] , pIC50 value = ≥ 8.00

With CDK2/Cyclin E1 (Homo sapiens, UniProt P24941) as the test system, CNC(=O)[C@@H](NC(=O)[C@@H]1CN(C(=O)c2cnc(C(C)(C)C)s2)CC12CN(C(=O)[C@H]1CC1(C)C)C2)[C@@H](C)OCC1CCCCC1 [I-229A] showed pIC50 of < 5.00

CDK2/Cyclin E1 (Homo sapiens, UniProt P24941) pIC50 of CNC(=O)[C@@H](NC(=O)[C@@H]1CN(C(=O)c2cncs2)CC12CN(C(=O)[C@H]1CC1(C)C)C2)[C@@H](C)OC(C)C1CCCCC1 (some centres unmarked) [I-279] is 7.00 to 8.00

Observed pIC50, CDK2/Cyclin E1 (Homo sapiens, UniProt P24941), C[C@@H](OCc1ccccc1)[C@H](NC(=O)[C@@H]1CN(C(=O)c2cncs2)CC12CN(C(=O)[C@H]1CC1(C)C)C2)C(=O)N(C)C [I-416] : 7.00 to 8.00

Value (pIC50, CDK2/Cyclin E1 (Homo sapiens, UniProt P24941)) for record CNC(=O)[C@@H](NC(=O)[C@H]1CN(C(=O)c2cnn(CC3CCOCC3)c2)CC12CN(C(=O)[C@H]1CC1(C)C)C2)[C@@H](C)OCC1CCCCC1 [I-121B] = 5.00 to 6.00
